Species: Rattus norvegicus
experimentSummary: Open TG-GATES - Regimen: Daily Repeat
Format: toxicity, organism-based, Sprague-Dawley
Set-up: regimen Daily Repeat, gender Male, age 6 weeks
experimentalParameters: in vivo, po, 0 mg/kg, […], tissue Plasma, route gavage, dose level Control, time 7 day
metric: AST (IU/L)
Numbers only, in IU/L.

Could I get AST for every one of these entries?
1. CCCC(CCC)C(=O)O
2. Clc1ccccc1CN1CCc2sccc2C1

1. 66
2. 81.6

====

Organism: Rattus norvegicus
experimentSummary: Open TG-GATES - Regimen: Single
Assay type: toxicity, organism-based, Sprague-Dawley
Set-up: regimen Single, gender Male, age 6 weeks
experimentalParameters: in vivo, po, 300 mg/kg, 9 h, tissue Plasma, route gavage, dose level Middle
metric: TP (g/dL)
Answers are plain numbers, in g/dL.

Examples with their reported TP follow.
CCc1cc(C(N)=S)ccn1 [ETHIONAMIDE]: 5.5
C[C@H](CS)C(=O)N1CCC[C@H]1C(=O)O: 5.3
O=C(O)c1cc(/N=N/c2ccc(S(=O)(=O)Nc3ccccn3)cc2)ccc1O: 5.5
Clc1ccccc1CN1CCc2sccc2C1: 5.5

API: the following record is the query input.
GET /values?readout=TP&item= `O=C(O)c1cn(C2CC2)c2cc(N3CCNCC3)c(F)cc2c1=O`
5.6

====

Hi there, I'd appreciate the recorded gamma-GTP for every entry that follows.
Species on record: Rattus norvegicus
experimentSummary: Open TG-GATES - Regimen: Daily Repeat
Format: toxicity, organism-based, Sprague-Dawley
Parameters: regimen Daily Repeat, gender Male, age 6 weeks
experimentalParameters: in vivo, po, 0 mg/kg, […], tissue Plasma, route gavage, dose level Control, time 28 day

COc1ccc(Cc2nccc3cc(OC)c(OC)cc23)cc1OC [PAPAVERINE]: 3.2 IU/L

Could I get gamma-GTP for every one of these entries?
1. O=C(O)c1cn(C2CC2)c2cc(N3CCNCC3)c(F)cc2c1=O [CIPROFLOXACIN]
2. Clc1ccccc1CN1CCc2sccc2C1 [TICLOPIDINE]

1. 1.4 IU/L
2. 0.8 IU/L

Could I get gamma-GTP for every one of these entries?
1. CC(=O)Oc1ccccc1C(=O)O [ASPIRIN]
2. NC(=O)N/N=C/c1ccc([N+](=O)[O-])o1 [NITROFURAZONE]
3. COc1ccc2c(c1)c(CC(=O)O)c(C)n2C(=O)c1ccc(Cl)cc1 [INDOMETHACIN]
4. CO[C@H]1/C=C/O[C@@]2(C)Oc3c(C)c(O)c4c(O)c(c(/C=N/N5CCN(C)CC5)c(O)c4c3C2=O)NC(=O)/C(C)=C\C=C\[C@H](C)[C@H](O)[C@@H](C)[C@@H](O)[C@@H](C)[C@H](OC(C)=O)[C@@H]1C [RIFAMPIN]

1.2 IU/L
0.8 IU/L
1.8 IU/L
0.8 IU/L

Could I get gamma-GTP for every one of these entries?
1. C[C@H](CS)C(=O)N1CCC[C@H]1C(=O)O [CAPTOPRIL]
2. O=C(O)c1cc(/N=N/c2ccc(S(=O)(=O)Nc3ccccn3)cc2)ccc1O [SULFASALAZINE]
3. NC(=O)N1c2ccccc2C=Cc2ccccc21 [CARBAMAZEPINE]
4. CCCC(CCC)C(=O)O [VALPROIC ACID]

0.6 IU/L
0.8 IU/L
1.2 IU/L
1 IU/L

Could I get gamma-GTP for every one of these entries?
1. CN(C)CCC=C1c2ccccc2CCc2ccccc21 [AMITRIPTYLINE]
2. CSc1ccc2c(c1)N(CCC1CCCCN1C)c1ccccc1S2 (stereo not given) [THIORIDAZINE]
3. CCc1cc(C(N)=S)ccn1 [ETHIONAMIDE]
4. Cn1c(=O)c2[nH]cnc2n(C)c1=O.O [THEOPHYLLINE]

1. 0.4 IU/L
2. 1.4 IU/L
3. 1.8 IU/L
4. 2.8 IU/L

====

Species: Rattus norvegicus
experimentSummary: Open TG-GATES - Regimen: Single
Format: toxicity, organism-based, Sprague-Dawley
Design: regimen Single, gender Male, age 6 weeks
experimentalParameters: in vivo, po, 0 mg/kg, 3 h, tissue Plasma, route gavage, dose level Control
metric: LDH (IU/L)
Answers are plain numbers, in IU/L.

Examples with their reported LDH follow.
CCc1cc(C(N)=S)ccn1 [ETHIONAMIDE]: 72.6
C[C@H](CS)C(=O)N1CCC[C@H]1C(=O)O [CAPTOPRIL]: 84.6
CC(=O)Oc1ccccc1C(=O)O [ASPIRIN]: 186.2
Clc1ccccc1CN1CCc2sccc2C1 [TICLOPIDINE]: 129.2
CSc1ccc2c(c1)N(CCC1CCCCN1C)c1ccccc1S2 (configuration not stated) [THIORIDAZINE]: 94.4
NC(=O)N/N=C/c1ccc([N+](=O)[O-])o1 [NITROFURAZONE]: 49.8
O=C(O)c1cn(C2CC2)c2cc(N3CCNCC3)c(F)cc2c1=O [CIPROFLOXACIN]: 92.6
Cn1c(=O)c2[nH]cnc2n(C)c1=O.O [THEOPHYLLINE]: 179
COc1ccc(Cc2nccc3cc(OC)c(OC)cc23)cc1OC [PAPAVERINE]: 147.2
CN(C)CCC=C1c2ccccc2CCc2ccccc21 [AMITRIPTYLINE]: 66.2

Could I get LDH for every one of these entries?
1. NC(=O)N1c2ccccc2C=Cc2ccccc21 [CARBAMAZEPINE]
2. O=C(O)c1cc(/N=N/c2ccc(S(=O)(=O)Nc3ccccn3)cc2)ccc1O [SULFASALAZINE]

1: 176.6; 2: 182

====

Species on record: Rattus norvegicus
experimentSummary: Open TG-GATES - Regimen: Single
Type: toxicity, organism-based, Sprague-Dawley
Parameters: regimen Single, gender Male, age 6 weeks
experimentalParameters: in vivo, po, 100 mg/kg, 6 h, tissue Plasma, route gavage, dose level Low
Response field label takes True when DBIL is strictly below 0.03 mg/dL and False in all other cases.

Below, 4 compounds whose answers are already recorded.
O=C(O)c1cc(/N=N/c2ccc(S(=O)(=O)Nc3ccccn3)cc2)ccc1O: False
CCc1cc(C(N)=S)ccn1 [ETHIONAMIDE]: True
O=C(O)c1cn(C2CC2)c2cc(N3CCNCC3)c(F)cc2c1=O: False
Clc1ccccc1CN1CCc2sccc2C1: False

Switching to the query record.
Bench note: check whether `C[C@H](CS)C(=O)N1CCC[C@H]1C(=O)O` shows DBIL below 0.03 mg/dL
True

====

Organism: Rattus norvegicus
experimentSummary: Open TG-GATES - Regimen: Single
Assay type: toxicity, organism-based, Sprague-Dawley
Design: regimen Single, gender Male, age 6 weeks
experimentalParameters: in vivo, po, 100 mg/kg, 6 h, tissue Plasma, route gavage, dose level Low
metric: RALB (g/dL)
Give bare numbers, in g/dL.

Examples with their reported RALB follow.
CCc1cc(C(N)=S)ccn1 [ETHIONAMIDE]: 3.5
O=C(O)c1cn(C2CC2)c2cc(N3CCNCC3)c(F)cc2c1=O: 3.9
Clc1ccccc1CN1CCc2sccc2C1: 3.4

Could I get RALB for every one of these entries?
1. O=C(O)c1cc(/N=N/c2ccc(S(=O)(=O)Nc3ccccn3)cc2)ccc1O
2. C[C@H](CS)C(=O)N1CCC[C@H]1C(=O)O

1. 3.3
2. 3.7

====

Organism: Rattus norvegicus
experimentSummary: Open TG-GATES - Regimen: Single
Type: toxicity, organism-based, Sprague-Dawley
Parameters: regimen Single, gender Male, age 6 weeks
experimentalParameters: in vivo, po, 300 mg/kg, 9 h, tissue Blood, route gavage, dose level Middle
metric: Neu (%)
Answers are plain numbers, in %.

O=C(O)c1cn(C2CC2)c2cc(N3CCNCC3)c(F)cc2c1=O: 13.4

Could I get Neu for every one of these entries?
1. C[C@H](CS)C(=O)N1CCC[C@H]1C(=O)O
2. Clc1ccccc1CN1CCc2sccc2C1
3. O=C(O)c1cc(/N=N/c2ccc(S(=O)(=O)Nc3ccccn3)cc2)ccc1O
4. CCc1cc(C(N)=S)ccn1 [ETHIONAMIDE]

15.2
20.2
22.6
21.4

====

Organism: Rattus norvegicus
experimentSummary: Open TG-GATES - Regimen: Single
Format: toxicity, organism-based, Sprague-Dawley
Parameters: regimen Single, gender Male, age 6 weeks
experimentalParameters: in vivo, po, 1000 mg/kg, 24 h, tissue Blood, route gavage, dose level High
Hi there, I'd appreciate the recorded Ret for every entry that follows.
One number for each entry, in %.

CCc1cc(C(N)=S)ccn1 [ETHIONAMIDE]: 8.3
Clc1ccccc1CN1CCc2sccc2C1 [TICLOPIDINE]: 5.9
O=C(O)c1cc(/N=N/c2ccc(S(=O)(=O)Nc3ccccn3)cc2)ccc1O [SULFASALAZINE]: 6.2
O=C(O)c1cn(C2CC2)c2cc(N3CCNCC3)c(F)cc2c1=O [CIPROFLOXACIN]: 9.1

API: the following record is the query input.
GET /values?readout=Ret&item= C[C@H](CS)C(=O)N1CCC[C@H]1C(=O)O [CAPTOPRIL]
8.4
